Catalogue of abundance fitness readings, one per entry.
B1: Glucocorticoid receptor, residues 419 to 494; numbered along this chain, P04150 (parent)
chain: KLCLVCSDEASGCHYGVLTCGSCKVFFKRAVEGQHNYLCAGRNDCIIDKIRRKNCPACRYRKCLQAGMNLEARKTK

Variants of: B1
assay_summary: abundance fitness (aPCA) (normalised: wild type 0, dead -1); higher = more abundant; growth selection in yeast, the domain comes from the species named
setup_conditions: Homo sapiens
Note: the reply should be a number with no unit written.

KLCLVCSDEASGCHYGVLTCGSCKVFFKRAVEGQHNYLCAGRNDCIIDKIRRKNCPACRYRKCLQAGMELEARKTK [N69E] | -0.02
KLCLVCSDEASGCHYGVLTCGSCKVFFKRAVEGQHNYLCAGRNDCIIDKIRRKNCPACRYRQCLQAGMNLEARKTK [K62Q] | -0.066
KLCLVCSDEASGCHYGVLTCGSCKVFFKRAVEGQHWYLCAGRNDCIIDKIRRKNCPACRYRKCLQAGMNLEARKTK [N36W] | -0.151
KLCLVCSDEASGCHYGVLTCGSCKVGFKRAVEGQHNYLCAGRNDCIIDKIRRKNCPACRYRKCLQAGMNLEARKTK [F26G] | -1
KLCLVCSDEASGCHYGVLTCGSCPVFFKRAVEGQHNYLCAGRNDCIIDKIRRKNCPACRYRKCLQAGMNLEARKTK [K24P] | -0.096

Req: Could you please provide reported abundance fitness for KLCLVCSDEASGCHYGVLTCGSCKVFFKRAVEGQHNYLCAGRLDCIIDKIRRKNCPACRYRKCLQAGMNLEARKTK [N43L] ? Thanks!
Resp: -0.123

Req: Could you please provide reported abundance fitness for KLCLVCSDEASGCHYGVLTCGSCKVFFKRAVEGQHNYLCAGRNDCIIDKIRRKNCPACRNRKCLQAGMNLEARKTK [Y60N] ? Thanks!
Resp: -0.478

Req: Could you please provide reported abundance fitness for KLCLVCSDEASGCHYGVLTCGSCKVFMKRAVEGQHNYLCAGRNDCIIDKIRRKNCPACRYRKCLQAGMNLEARKTK [F27M] ? Thanks!
Resp: -0.144

Req: Could you please provide reported abundance fitness for KLCLVCSDEASGCHYGVLTCGSCMVFFKRAVEGQHNYLCAGRNDCIIDKIRRKNCPACRYRKCLQAGMNLEARKTK [K24M] ? Thanks!
Resp: -0.087

Req: Could you please provide reported abundance fitness for KLCLVCSDEASGAHYGVLTCGSCKVFFKRAVEGQHNYLCAGRNDCIIDKIRRKNCPACRYRKCLQAGMNLEARKTK [C13A] ? Thanks!
Resp: -0.02

Req: Could you please provide reported abundance fitness for KLCLVCSDEASGCHYGVLTCGSCKVFFKRAVEGQDNYLCAGRNDCIIDKIRRKNCPACRYRKCLQAGMNLEARKTK [H35D] ? Thanks!
Resp: 0.005
